target: PD-1/PD-L1 (Homo sapiens, UniProt Q9NZQ7); assay: PD-1/PD-L1 NFAT reporter assay (co-culture of aAPC-PD-L1 CHO cells and Jurkat cells overexpressing PD-1, NFAT luciferase); conditions: co-culture incubated for 6 hrs at 37° C.; luciferase under NFAT control
Sequence (Q9NZQ7 19-290): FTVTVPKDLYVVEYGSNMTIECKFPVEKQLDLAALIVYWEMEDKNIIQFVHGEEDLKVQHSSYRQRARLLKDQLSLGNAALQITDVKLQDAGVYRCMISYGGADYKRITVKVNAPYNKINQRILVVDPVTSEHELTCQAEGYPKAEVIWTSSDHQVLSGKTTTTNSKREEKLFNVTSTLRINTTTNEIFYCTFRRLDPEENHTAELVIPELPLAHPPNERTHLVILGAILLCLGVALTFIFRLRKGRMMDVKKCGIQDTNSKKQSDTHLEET
pEC50: −log10 of the molar value.
metric: pEC50

# annotated cases, reported pEC50 shown
Cc1c(COc2cc(OCCCC#N)c(CN[C@@](C)(CO)C(=O)O)cc2Cl)cccc1-c1cccc(-c2ccc3c(c2)CNCC3)c1C | 6.76
CC(=O)NCC1Cc2ccc(-c3cccc(-c4cccc(COc5cc(OCc6cncc(C#N)c6)c(CN[C@@](C)(CO)C(=O)O)cc5Cl)c4C)c3C)cc2CN1 (some centres unmarked) | 6.76
COc1nc(-c2cccc(-c3cccc(-c4nc5c(s4)CCNC5)c3Cl)c2Cl)ccc1CNC[C@@H]1CCC(=O)N1 | 6.85
COc1nc(-c2cccc(-c3cccc(-c4cc5c(s4)CNCC5)c3Cl)c2Cl)ccc1CNC[C@@H]1CCC(=O)N1 | 6.79

a. Cc1c(COc2cc(OCc3cncc(C#N)c3)c(CN[C@@](C)(CO)C(=O)O)cc2Cl)cccc1-c1cccc(-c2ccc3c(c2)C2CCC(C3)N2)c1C (some centres unmarked)
b. C[C@@](CO)(NCc1cc(Br)c(OCc2cccc(-c3cccc(-c4ccc5c(c4)CNCC5)c3Cl)c2Cl)nc1OCc1cncc(C#N)c1)C(=O)O
Response body: label of entry with the larger pEC50; valid values a , b . Answer = label.
b

I. C[C@](CO)(NCc1cc(Br)c(OCc2cccc(-c3cccc(-c4ccc5c(c4)CNCC5)c3Cl)c2Cl)nc1OCc1cncc(C#N)c1)C(=O)O
II. COc1nc(-c2cccc(-c3cccc(-c4nc5c(s4)CNCC5)c3Cl)c2Cl)ccc1CNC[C@@H]1CCC(=O)N1
Smaller pEC50 value, I vs II ? Answer = label.
I
(I: 6.78, II: 6.98)

a. CNC(=O)NC1CNCc2cc(-c3cccc(-c4cccc(COc5cc(OCc6cncc(C#N)c6)c(CNC[C@@H](O)CC(=O)O)cc5Cl)c4C)c3C)ccc21 (some centres unmarked)
b. C[C@](CO)(NCc1cc(Cl)c(OCc2cccc(-c3cccc(-c4ccc5c(c4)CNCC5)c3Cl)c2Cl)nc1OCc1cncc(C#N)c1)C(=O)O
Smaller pEC50 value, a vs b ? Answer = label.
b
